# assay_system: P2X7 receptor (Homo sapiens, UniProt Q99572)
# Construct: endogenous in cells; host or cells: THP-1 cells differentiated with LPS and IFN-γ
# Sequence (Q99572 whole entry): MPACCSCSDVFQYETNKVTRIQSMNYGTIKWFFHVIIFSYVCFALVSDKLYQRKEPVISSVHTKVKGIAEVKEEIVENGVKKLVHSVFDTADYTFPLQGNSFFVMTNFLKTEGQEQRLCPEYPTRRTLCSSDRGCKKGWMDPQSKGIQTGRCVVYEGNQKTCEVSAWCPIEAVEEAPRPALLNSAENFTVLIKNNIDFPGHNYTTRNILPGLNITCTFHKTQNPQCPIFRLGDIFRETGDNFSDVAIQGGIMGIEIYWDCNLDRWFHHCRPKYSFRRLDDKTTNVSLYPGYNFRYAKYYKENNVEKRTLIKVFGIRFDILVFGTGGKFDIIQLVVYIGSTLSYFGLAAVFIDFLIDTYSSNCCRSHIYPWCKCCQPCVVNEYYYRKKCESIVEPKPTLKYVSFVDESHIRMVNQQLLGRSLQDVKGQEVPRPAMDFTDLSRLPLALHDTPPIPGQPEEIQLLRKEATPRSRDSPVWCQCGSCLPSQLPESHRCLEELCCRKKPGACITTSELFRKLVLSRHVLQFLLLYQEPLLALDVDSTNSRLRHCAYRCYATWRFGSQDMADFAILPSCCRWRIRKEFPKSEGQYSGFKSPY
# assay_overview: IL-1β release assay in differentiated THP-1 cells stimulated with BzATP (Example 9)
# Format: cell-based
# particulars: four parameter logistic fit, read-out: IL-1β IC50
reported_property: IC50 (nM)

Test item "O=C(Cc1ccc(Cl)cc1F)Nc1cccc2c(=O)n(C3CCC3)ccc12" ; P2X7 receptor (Homo sapiens, UniProt Q99572); reported IC50 was 14.4

Test item CC(C(=O)Nc1cccc2c(=O)n(-c3cc[nH]n3)ccc12)c1ccc(Cl)c(C(F)(F)F)c1 (stereo not shown) ; P2X7 receptor (Homo sapiens, UniProt Q99572); reported IC50 was 14.1

(A) O=C(CC12CC3CC(CC(C3)C1)C2)Nc1cccc2c(=O)n(-c3ccc(Oc4c(Cl)cccc4Cl)nc3)ccc12
(B) O=C(Cc1ccc(Cl)c(F)c1)Nc1cccc2c(=O)n(C3CC3)ccc12
Task: In terms of reported IC50, does A or B have the smaller number? Choose, then provide that item's label.
Output: B
